measured_parameter: melting point

Briefly, melting point measured for "Cc1sc(N)c(C#N)c1Cl" : 158 °C

Briefly, melting point measured for CN(C)c1ccc(C2CCCN2S(=O)(=O)c2ccc(Cl)cc2)cc1Cl (racemic) : 103 °C

Briefly, melting point measured for "Nc1c([N+](=O)[O-])ccc(Oc2cccc(Cl)c2)c1Cl" : 101 to 102 °C

Briefly, melting point measured for "CC(=O)N1CCc2c(sc(CCN3CCC(c4noc5cc(F)ccc45)CC3)c2Br)C1" : 114 to 117 °C

Briefly, melting point measured for O=[N+]([O-])CS(=O)c1cccc2c1oc1ccccc12 (centres undefined) : 174 to 176 °C

Briefly, melting point measured for CC[Si](CC)(CC)OC1CC2=CCC3C4CCC(=O)C4(C)CCC3C2(C)C(O[Si](CC)(CC)CC)C1 (centres undefined) : 99 to 100 °C

Briefly, melting point measured for "CC(=O)c1ccc(OCCCCl)c(O)c1" : 101 to 103 °C

Briefly, melting point measured for "COc1cc(COc2nn(-c3ccccc3)cc2/C=C/c2coc(C(C)C)n2)ccc1OCc1nc(-c2ccc(CC(=O)O)cc2)oc1C" : 116 to 118 °C

Briefly, melting point measured for "CCCCCCCCCCOc1ccc(C(=O)NNC(=O)C(F)(F)C(F)(F)C(F)(F)F)cc1" : 88 °C

This collection of values is drawn from a melting point compilation (Tetko et al.; mined from patent text by program, amines drawn as free bases though some values may be those of a salt).
